Assay: protein stability index of a GFP-peptide fusion (GPS, HEK-293T) (PSI 1-6); higher = more stable;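 further: 24-mer peptide tiles fused after GFP, lentivirally expressed, FACS-sorted into six equal bins by GFP/DsRed ratio, decoded by Illumina sequencing, PSI is the read-weighted mean bin number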
Conditions: treatment: DMSO; c terminus: a fixed tail appended
Measured protein stability index, listed per entry.
measurement_name: protein stability index

>>> print(df.to_string())
                                    seq         measurement_name  recorded_value
 0      SGEFGSVFKCVKRLDGCIYAIKRS [WEE1]  protein stability index            2.31
 1      PSLFHLNTLKRENSSPRVMQRKQS [DLC1]  protein stability index            3.92
 2     FPNRTDQQCQYRWLRVLNPDLVKG [MYBL2]  protein stability index             2.4
 3     PRCPGSVNEKLPQREGTGKTVSLQ [SMOC2]  protein stability index            5.03
 4      LVADLLYWKDTRTSGVVFTGLMVS [RTN2]  protein stability index            3.17
 5    VAREYYSEADASHCIQQILEAVLH [CAMK2B]  protein stability index            2.29
 6    EEERAFWMENNGHVAGEQMLEDGP [CCDC70]  protein stability index            5.37
 7      MELPSGPGPERLFDSHRLPGDCFL [AUP1]  protein stability index            3.36
 8      IKWLKEAEEESSGGEEEDEDENIE [EIF5]  protein stability index            5.41
 9    ILSEEGRRQQAKLKELQAIAERLG [KCNAB2]  protein stability index            3.57
10     FICQATGDPRPKIVWNKKGKKVSN [PTPRD]  protein stability index            2.84
11      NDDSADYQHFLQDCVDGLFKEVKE [DLC1]  protein stability index            2.96
12      REISETEAKALLKERQKKDNHNLI [TFE3]  protein stability index               5
13     LARGIHVAGILSLLLGTAYSFYLF [POMT2]  protein stability index             2.6
14   LSWFILHARYRVIHFIAVAVCLLG [SLC35F2]  protein stability index            2.49
15    LRTSNGQPVKTAGEITQHNVTELL [DNAAF3]  protein stability index            4.14
16     TNVESQLAEIRCDLERQNQEYQVL [KRT34]  protein stability index            4.32
17     LHRLFREKSLDQLKSISAEEILTL [PHTF1]  protein stability index            2.11
18      DPEDFEDAWKRPDALPGQSKRLAV [TLE6]  protein stability index            5.08
19     HKPKNSEELYKEIDGVATTRYSVA [PTPRD]  protein stability index            4.43
20       FSRAGISEAQLTDAETSKLIYDFI [WAS]  protein stability index            2.57
21   SKDNMRTRIMIGLTLVFFVQITGQ [SLC2A12]  protein stability index            2.55
22  IPLDLGCTQVTQDGDIPNIPAEEN [FAM189A2]  protein stability index            5.48
